// provenance: ChEMBL document CHEMBL1153068

# target entity: Nociceptin receptor (Rattus norvegicus)
# method summary: Agonist activity at rat ORL1 receptor expressed in african green monkey COS7 cells assessed as stimulation of [35S]GTPgammaS binding by radioligand receptor-binding assay
# Format: functional, cell-based, COS-7
recorded endpoint: pEC50
// pEC50 is dimensionless: -log10 of concentration (M)

Previously resolved entries follow.
substance: H-FGGFTGARKSARKKWNQ-OH
target entity: Nociceptin receptor (Rattus norvegicus)
recorded endpoint: pEC50
recorded value: 8.49

substance: H-FGGFTGARKSARKRWNQ-OH
target entity: Nociceptin receptor (Rattus norvegicus)
recorded endpoint: pEC50
recorded value: 8.51

substance: H-FGGFTGARKSARKWKNQ-OH
target entity: Nociceptin receptor (Rattus norvegicus)
recorded endpoint: pEC50
recorded value: 8.89

# ---- query substance ----
Request: pEC50 for H-FGGFTGARKSARKWRNQ-OH ?
Result: 8.89

----------
# target entity: Nociceptin receptor (Rattus norvegicus)
# method summary: Displacement of [3H]nociceptin from rat ORL1 receptor expressed in african green monkey COS7 cells by competitive binding assay
# Assay type: cell-based, COS-7
recorded endpoint: pIC50
Value format note: pIC50 is -log10 of concentration (mol/L); just state the number.

Record excerpt, results attached:
substance: H-FGGFTGARKSARKWKNQ-OH
pIC50: 9.60

substance: H-FGGFTGARKSARKKWNQ-OH
pIC50: 9.51

Request: Recall the recorded pIC50 for H-FGGFTGARKSARKWRNQ-OH with Nociceptin receptor (Rattus norvegicus) and state it.
Result: 9.64

Request: Recall the recorded pIC50 for H-FGGFTGARKSARKRWNQ-OH with Nociceptin receptor (Rattus norvegicus) and state it.
Result: 9.52

----------
# target entity: Nociceptin receptor (Rattus norvegicus) (UniProt P35370)
# Sequence (P35370 whole entry): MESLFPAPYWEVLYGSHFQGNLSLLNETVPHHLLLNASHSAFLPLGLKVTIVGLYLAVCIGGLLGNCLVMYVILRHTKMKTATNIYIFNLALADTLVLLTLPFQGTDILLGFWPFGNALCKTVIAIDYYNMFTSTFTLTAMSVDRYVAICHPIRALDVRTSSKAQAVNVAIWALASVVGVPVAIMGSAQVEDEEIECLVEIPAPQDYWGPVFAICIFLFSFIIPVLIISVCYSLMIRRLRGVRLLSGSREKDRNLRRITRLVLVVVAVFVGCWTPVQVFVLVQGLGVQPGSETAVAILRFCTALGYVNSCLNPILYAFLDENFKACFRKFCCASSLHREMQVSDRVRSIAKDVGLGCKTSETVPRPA
# method summary: Relative potency, ratio of wild type nociceptin EC50 to compound EC50 for stimulation of [35S]GTPgammaS binding to rat ORL1 receptor expressed in african green monkey COS7 cells
# Format: functional, cell-based
# condition parameters: COS-7
recorded endpoint: Ratio EC50
Give the value as a plain number.

Some solved cases for reference:
substance: H-FGGFTGARKSARKWRNQ-OH
Ratio EC50: 10
//
substance: H-FGGFTGARKSARKRWNQ-OH
Ratio EC50: 4.19
//
substance: H-FGGFTGARKSARKWANQ-OH
Ratio EC50: 2.24
//
substance: H-FGGFTGARKSARKLWNQ-OH
Ratio EC50: 0.26
//
substance: H-FGGFTGARKSARKWKNQ-OH
Ratio EC50: 10

Request: Name the recorded Ratio EC50 for H-FGGFTGARKSARKKWNQ-OH .
Result: 4.06

----------
# target entity: Nociceptin receptor (Rattus norvegicus) (UniProt P35370)
# method summary: Relative potency, ratio of wild type nociceptin IC50 to compound IC50 for rat ORL1 receptor expressed in african green monkey COS7 cells
# Assay type: cell-based
# condition parameters: COS-7
recorded endpoint: Ratio IC50
Lab note: write the figure by itself, no unit.

substance: H-FGGFTGARKSARKKWNQ-OH
Ratio IC50: 2.35

substance: H-FGGFTGARKSARKLWNQ-OH
Ratio IC50: 0.35

substance: H-FGGFTGARKSARKRWNQ-OH
Ratio IC50: 2.43

substance: H-FGGFTGARKSARKWANQ-OH
Ratio IC50: 1.78

substance: H-FGGFTGARKSARKWKNQ-OH
Ratio IC50: 2.92

Switching to the query record.
Request: Given H-FGGFTGARKSARKWRNQ-OH , state its recorded Ratio IC50.
Result: 3.17
